Overview of reported melting point across a group of compounds:

A selection of reference data follows.
{"columns": ["COMPOUND", "melting point"],
 "data": [
  ["Cc1cc(N2CCN(CCN3CCCC3)CC2)ccc1N/C=N/O.Cl [Compound 97]", "196 to 198 °C (dec.)"],
  ["O/N=C/Nc1ccc(N2CCC3(CC2)OCCO3)cc1 [Compound 33]", "157 to 158.5 °C"],
  ["CCOC(=O)C1CCN(c2ccc(N/C=N/O)cc2Cl)CC1 [Compound 134]", "135 to 138 °C (dec.)"],
  ["O/N=C/Nc1ccc(N2CCCCCC2)c(F)c1 [Compound 22]", "112 to 115 °C"],
  ["Cl.O/N=C/Nc1ccc(N2CCN(C3CCCCC3)CC2)c(Br)c1 [Compound 108]", "222 to 223 °C (dec.)"]
]}

Form field melting point, entry OCCC1CCN(c2ccc(N/C=N/O)cc2)CC1 [Compound 54] : 186 to 189 °C

Form field melting point, entry Cl.O/N=C/Nc1ccc(N2CCN(CCN3CCCC3)CC2)c(F)c1 [Compound 93] : 205 °C (dec.)

Form field melting point, entry O=C(CN1CCN(c2ccc(N/C=N/O)cc2C(F)(F)F)CC1)N1CCOCC1 [Compound 103] : 75 to 77 °C

Form field melting point, entry Cl.OCCN1CCN(c2ccc(N/C=N/O)cc2F)CC1 [Compound 80] : 180 to 182 °C (dec.)

Form field melting point, entry O/N=C/Nc1ccc(N2CCSCC2)c(F)c1 [Compound 2] : 141 to 142 °C (dec.)

---

Molecular target: 20-HETE-Producing Enzyme derived from Human Renal Microsome
Test: Inhibitory action to 20-HETE-producing enzyme derived from human renal microsome
Settings: human renal microsome fraction, tritium-arachidonic acid substrate, NADPH, 37° C., 1.5 hours, pH 7.4; read-out: IC50 (inhibition of 20-HETE production)
pIC50: −log10 of the molar value.
PROPERTY MEASURED: pIC50

A selection of reference data follows.
{"columns": ["MOLECULE", "TESTED SYSTEM", "pIC50"],
 "data": [
  ["COCCN(CCOC)c1ccc(N/C=N/O)cc1", "20-HETE-Producing Enzyme derived from Human Renal Microsome", 6.47],
  ["CCN(CC)C(=O)C1CCCN(c2ccc(N/C=N/O)cc2C(F)(F)F)C1 (stereo not drawn)", "20-HETE-Producing Enzyme derived from Human Renal Microsome", 7.71],
  ["O=C(CN1CCN(c2ccc(N/C=N/O)cc2Br)CC1)N1CCOCC1", "20-HETE-Producing Enzyme derived from Human Renal Microsome", 7.68],
  ["O/N=C/Nc1ccc(N2CCCCCC2)c(Cl)c1", "20-HETE-Producing Enzyme derived from Human Renal Microsome", 8.66],
  ["O/N=C/Nc1ccc(N2CCCCCC2)c(F)c1", "20-HETE-Producing Enzyme derived from Human Renal Microsome", 8.68]
]}

[I] Cl.O/N=C/Nc1ccc(N2CCN(CCN3CCCC3)CC2)c(F)c1
[II] Cl.OCCN1CCN(c2ccc(N/C=N/O)cc2F)CC1
Which shows the larger pIC50 value: I or II ? # respond with the chosen item's label
II
(II: 7.34, I: 6.87)

[a] O/N=C/Nc1ccc(N2CCN(c3ccccn3)CC2)c(Cl)c1
[b] CN(C)CCN1CCN(c2ccc(N/C=N/O)cc2)CC1.Cl
[c] COc1cc(N2CCOCC2)ccc1N/C=N/O
[d] Cl.O/N=C/Nc1ccc(N2CCN(CCN3CCCC3)CC2)c(C(F)(F)F)c1
[e] O/N=C/Nc1ccc(N2CC=CCC2)c(C(F)(F)F)c1
Arrange the 5 molecules by rising pIC50, starting with the smallest. Output spec: a listing of the labels in the requested order.
d, b, c, e, a
(d: 5.81, b: 6.02, c: 7.34, e: 7.74, a: 8.46)

[1] O/N=C/Nc1ccc(N2CCSCC2)c(F)c1
[2] O/N=C/Nc1ccc(N2CC=CC2)c(Cl)c1
[3] O/N=C/Nc1ccc(N2CCCCCC2)c(C(F)(F)F)c1
[4] O/N=C/Nc1ccc(N2CCN(CCN3CCCC3)CC2)c(Br)c1
Arrange the 4 molecules by rising pIC50, starting with the smallest. Output spec: a listing of the labels in the requested order.
4, 3, 2, 1
(4: 7.12, 3: 7.60, 2: 7.90, 1: 8.49)
